Listing of entries alongside the reported percent blocking.
- ASSAY_TARGET: rSARS2-B.1.1.7 S aa16-1211 4x aa mut., C-His (SARS-CoV-2, UniProt P0DTC2 16-1211)
- EXPERIMENT_DESCRIPTION: flow cytometry, blocking of binding to hACE-2 cells
The response must be a number in % with no trailing unit.

Recorded percent blocking, per entry:
[[record]]
binder = "1035752 (antibody, V domains shown) VH: QVQLQQPGAELVRPGASVKMSCKASGYTFTSHSIHWVKQTPGQGLEWIGAVYPGNGDTSYYQKFKGKATLTADKSSSTAYMHLSSLTSEDSAVYYCARDGYSDYYAMDCWGQGTSVTVSS VL: DIVMTQSQKFMSTSVGDRVSVTCKASQNVGTNVAWYQQKPGQSPKALIYSASYRYSGVPDRFTGSGSGTDFTLTINNVQSEDLAEYFCQQYNRYPWTFGGGTKLEIK"
measured_number = 74.4

[[record]]
binder = "1035716 (antibody, V domains shown) VH: EVLLQQSGPELVKPGASVKIPCKASGYTFTDYNMDWVKQSHGKSLEWIGDINPNNGGTIYNQKFKGKATLTVDKSSSTAYMELRSLTSEDTAVYYCAREGYGNYFDYWGQGTTLTVSS VL: DILLTQSPAILSVSPGERVSFSCRASQSIGTSIHWYQQRTNGSPRLLIKYASESISGIPSRFSGSGSGTDYTLSINSVESEDIADYYCQQSYSWPTTFGAGTKLELK"
measured_number = 81.5


Complete the entry with percent blocking for 1035423 (antibody, V domains shown) VH: EVKLEESGGGLVQPGGSMKLSCTASGFTFSDAWMDWVRQSPEKGLEWVAEIRNKANNHATYYAESVKGRFTISRDDSKSSVYLQMNSLRAEDTGIYYCILFITYAMDYWGQGTSVTVSS VL: DIVLTQSQKFMSTSVGDRVSITCKASQNVRTAVAWYQQKPGQSPKALIYLASNRHTGVPDRFTGSGSGTDFTLTISNVQSEDLADYFCLQHWNYPLTFGSGTKLELK
75.9
